# assay method text: DPPH· free radical scavenging assay
# setup conditions: DPPH· scavenging, 0.2 mM DPPH· in DMSO, absorbance 515 nm
pIC50: −log10 of the molar value.

| structure string | pIC50 |
| --- | --- |
| Cc1ccc(/C=C/C(O)=C2\CCC/C(=C\c3ccc(C)cc3)C2=O)cc1 | 2.87 |
| O=C1/C(=C(O)/C=C/c2ccc(Cl)cc2)CC/C1=C\c1ccc(Cl)cc1 | 4.05 |
| Cc1ccc(/C=C/C(O)=C2\CC/C(=C\c3ccc(C)cc3)C2=O)cc1 | 3.29 |
| O=C1/C(=C(O)/C=C/c2ccc(Cl)cc2)CCC/C1=C\c1ccc(Cl)cc1 | 3.15 |
| COc1cc(/C=C/C(O)=C2\CCC/C(=C\c3ccc(O)c(OC)c3)C2=O)ccc1O | 3.14 |
| O=C1/C(=C(O)/C=C/c2ccccc2)CCC/C1=C\c1ccccc1 | 2.54 |
| O=C1/C(=C(O)/C=C/c2ccc([N+](=O)[O-])cc2)CC/C1=C\c1ccc([N+](=O)[O-])cc1 | 3.44 |
| O=C1/C(=C(O)/C=C/c2ccc(O)cc2)CC/C1=C\c1ccc(O)cc1 | 4.22 |
